- Test system: CD28
- Protocol Description: phage spot ELISA on CD28
- Type: binding
- Particulars: phage spot ELISA signal/noise; S3 Table sheet CD28-1 (panning campaign 1)
Hi! Could you tag entries with S/N below 3 as rule met, and those at or above as rule not met? Much appreciated.

(Q) Quick check: S/N of LECSHLQMFVIYNSSEECERLCRKLGVTSCRVHCG [CD28-1 clone 10, phage clone, 5JI4 library, CD28-1 panning] under 3?
(A) rule met

----------
- System: CD28
- Protocol Description: phage spot ELISA on CD28
- Type: binding
- Particulars: phage spot ELISA signal/noise; S3 Table sheet CD28-1 (panning campaign 1)
# strict inequality: S/N < 3 yields MET, everything else yields NOT MET

RANATEWVPWIIYQSSEECERLCRKLGVTNCRVHCG [CD28-1 clone 2, phage clone, 5JI4 library, CD28-1 panning]; NOT MET
PCECQENTTFIIYSSSEECERLCRKLGVTNCRVHCG [CD28-1 clone 12, phage clone, 5JI4 library, CD28-1 panning]; MET
PANAVIRTWIIFASSEECERLCRKLGVTNCRVHCG [CD28-1 clone 5, phage clone, 5JI4 library, CD28-1 panning]; NOT MET

Switching to the query record.
(Q) For this sequence, is S/N lower than 3? PCESQSMQHFIIYNSSEECERLCRKLGVTNCRVHCG [CD28-1 clone 1, phage clone, 5JI4 library, CD28-1 panning]
(A) NOT MET
